Molecular target: Rac GTPase-activating protein 1 (Homo sapiens) (UniProt Q9H0H5)
Sequence (Q9H0H5 whole entry, looked up): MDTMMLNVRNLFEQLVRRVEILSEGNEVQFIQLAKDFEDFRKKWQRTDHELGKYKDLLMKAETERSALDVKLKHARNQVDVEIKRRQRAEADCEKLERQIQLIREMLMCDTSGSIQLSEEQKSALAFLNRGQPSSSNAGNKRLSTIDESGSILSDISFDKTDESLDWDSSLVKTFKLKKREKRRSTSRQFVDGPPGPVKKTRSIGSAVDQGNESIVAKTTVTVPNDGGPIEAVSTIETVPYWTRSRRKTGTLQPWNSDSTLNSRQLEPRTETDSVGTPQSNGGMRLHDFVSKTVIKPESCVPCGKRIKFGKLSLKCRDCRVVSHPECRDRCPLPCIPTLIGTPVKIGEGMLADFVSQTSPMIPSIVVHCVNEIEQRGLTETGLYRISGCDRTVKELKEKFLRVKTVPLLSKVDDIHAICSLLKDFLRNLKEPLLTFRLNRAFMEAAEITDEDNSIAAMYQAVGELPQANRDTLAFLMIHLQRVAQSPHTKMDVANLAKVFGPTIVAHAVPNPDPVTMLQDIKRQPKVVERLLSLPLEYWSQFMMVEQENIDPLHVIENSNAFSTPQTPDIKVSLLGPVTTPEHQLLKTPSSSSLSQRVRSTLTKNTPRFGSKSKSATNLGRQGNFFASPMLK
Assay: blockers of MgcRacGAP-driven Rac1 GTP hydrolysis – biochemical, ADP Hunter fluorescence, primary and confirmatory, confirmation (AID 624330);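 further: fluorescence reports GDP produced by GAP-driven GTP hydrolysis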
Conditions: MgcRacGAP-stimulated Rac1 GTP hydrolysis, at 30 µM, active compounds read high, GST-tagged Rac1 F28L mutant substrate
In all, about 340,000 compounds went through this assay and about 2,100 (0.62%) were called active. Not all results are given here. Potency and affinity values are given separately.
Measured Quantity: inhibition (%)
Numbers only, in %.

Hey, can you go through the list below and give me inhibition for every item?
1. COC(=O)Cc1c(O)ccn(CCc2ccc(OC)c(OC)c2)c1=O
2. CC[n+]1c(/C=C/C=C/N(C(C)=O)c2ccccc2)sc2ccccc21
3. Cc1ccc(S(=O)(=O)N2CCN(c3ccc(C(=O)N4CCOCC4)cc3[N+](=O)[O-])CC2)cc1

1. 5.94
2. 23.1
3. 3.02

Hey, can you go through the list below and give me inhibition for every item?
1. O=C1OC2(CCCC2)OC(=O)C1=Cc1c[nH]c2ccccc12
2. COc1ccc(C(=O)N2CCNC(=O)C2CC(=O)Nc2cccc(Cl)c2Cl)cc1 (stereo not drawn)

1. 10.5
2. -0.3

Hey, can you go through the list below and give me inhibition for every item?
1. CCN(CC)c1ccc(/C=C/c2ccc3ccc(OC)cc3[n+]2CC)cc1
2. CCc1cc2c(=O)c(-c3nc4ccccc4n3C)c(COCC(=O)O)oc2cc1O
3. O=C(c1cccc(F)c1)N1CCC(N2CCCCCC2)CC1
4. O=C(N/N=C/c1ccccc1O)c1cccc(C(F)(F)F)c1

1: 12.8; 2: 3.02; 3: 27; 4: -1.42
